The measured values listed here are drawn from the supplement of paper PMC6555819.

test system: RARb:RXRa (NR concentration 270 nM, RXRa partner concentration 90 nM); test: PBM binding z-score (relative to random genomic background probes); higher = stronger binding; sequences stand for … in GC…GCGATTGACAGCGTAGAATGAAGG
Entry flag: y if PBM binding z-score reaches 1; n if it does not.

{"SEQUENCE DATA": "TTACCAAGGTGAAAGGACGTTGATGCACGCCTTG", "CATEGORY": "y"}
{"SEQUENCE DATA": "ATCTCTAGGTAAGGTTCAGTGAAAGATCGATAGA", "CATEGORY": "y"}
{"SEQUENCE DATA": "ATCTCTAGGTGAAGATAGTTCAGTGAATGCAAAT", "CATEGORY": "y"}
{"SEQUENCE DATA": "AGAATGAGGTTATAAAGATCAGGGAATTGCGGTC", "CATEGORY": "y"}
{"SEQUENCE DATA": "TCTTGTAGATCAGCAGGTTAAGGAAGCTGGCCAA", "CATEGORY": "n"}
{"SEQUENCE DATA": "GCTTGTCGATCAAGGTTAAGAAAGACTAAGCTAA", "CATEGORY": "n"}
{"SEQUENCE DATA": "CCGGGTAGGTTATGGGGCATTCAGGCAACGGTGA", "CATEGORY": "y"}
{"SEQUENCE DATA": "AGAACGAGGGCACGCTGAGTTCATAGCAGAGTAG", "CATEGORY": "y"}
{"SEQUENCE DATA": "CAGCCTAGGTCAGGGCCAGCATAGGAGGAACGTT", "CATEGORY": "y"}
{"SEQUENCE DATA": "CCAGACAGCTGAAAGGTAACTCAGTCTGGTACGC", "CATEGORY": "n"}
{"SEQUENCE DATA": "ATATGTAGGTTACATCCGGGTCATTCAGGCTATG", "CATEGORY": "y"}
{"SEQUENCE DATA": "TTACCAAGGTGAGCTGAGGTCGTTGAACCAACTC", "CATEGORY": "y"}
{"SEQUENCE DATA": "TGTCAAACTTCAAAGGTAACGTAAGTATCCACAC", "CATEGORY": "n"}
{"SEQUENCE DATA": "CATCCAAGGTCAGAGAGGTCAGTGAATGCCGAGT", "CATEGORY": "y"}
{"SEQUENCE DATA": "TGAATGAGGTTATAAGATCAGGGATCGTTGCAAA", "CATEGORY": "n"}
{"SEQUENCE DATA": "TAGCCTAGGTCATGCGGGCCAGTATCGTGTCGGC", "CATEGORY": "y"}
{"SEQUENCE DATA": "TCGAGTAGGTTAGGGGCTTTCAGAATGGCGTCGA", "CATEGORY": "n"}
{"SEQUENCE DATA": "AGAATGAGGTTTTACGTAGATCAGGGAAGAAAGT", "CATEGORY": "n"}
{"SEQUENCE DATA": "ATATGTAGGTTACATCCGGGTCATTCGGGCTATG", "CATEGORY": "y"}
{"SEQUENCE DATA": "CTCCAAAGGTCGTGCTCAGGTGAGTATACCAAAC", "CATEGORY": "y"}
{"SEQUENCE DATA": "AGTCAAAGTTCACTAGGGAACGTAAGATTCAGCT", "CATEGORY": "y"}
{"SEQUENCE DATA": "TCAGACAGGTGAAGGCAACTCAGGTACGCAGTCG", "CATEGORY": "n"}
{"SEQUENCE DATA": "TAGCCTAGGTCAGATCGGGCAAGTATACGCTATA", "CATEGORY": "y"}
{"SEQUENCE DATA": "CAAACTAGGTCACCGGAAGTTCAAAGTCCGCATG", "CATEGORY": "y"}
{"SEQUENCE DATA": "GCGACTGGAGCATCAGCAGGTTACCATAACTTAA", "CATEGORY": "n"}
{"SEQUENCE DATA": "CTCGAGAGGTCGTGCTCAGGTGAGTATACCAAAC", "CATEGORY": "y"}
{"SEQUENCE DATA": "ACTTACGGGTCAACAAGGTTATAGCACGCGTATA", "CATEGORY": "y"}
{"SEQUENCE DATA": "ATCGAAAGGTCGAGGTGATTATAGAGAAAGGGAA", "CATEGORY": "y"}
{"SEQUENCE DATA": "CCGACTGGGCCAGAAAGGTTACCATACCATCCGG", "CATEGORY": "y"}
{"SEQUENCE DATA": "CGTCCAAGGGCATAGGAGGTCAGTGAAGACAGAT", "CATEGORY": "y"}
{"SEQUENCE DATA": "AGAATGAGGTTACCAAAGATCAGGAAAACGCTTG", "CATEGORY": "y"}

----------
system: FXR:RXRa (NR concentration 270 nM, RXRa partner concentration 90 nM); test: PBM binding z-score (relative to random genomic background probes); higher = stronger binding; sequences stand for … in GC…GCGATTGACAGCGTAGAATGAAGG
A collection of sequences and their measured PBM binding z-score
RECORDED METRIC: PBM binding z-score

{"SEQUENCE DATA": "CAAGCTAGGTCACCGGAAGGTCAAAGTCCGCATG", "REPORTED VALUE": 6.4}
{"SEQUENCE DATA": "ATCTCTAAGTAACAAGTTCAGTGAAAGAGAGGAC", "REPORTED VALUE": 0.888}
{"SEQUENCE DATA": "AGAACGAGGGCACGCTGAGTTGGTAGCAGAGTAG", "REPORTED VALUE": 0.682}
{"SEQUENCE DATA": "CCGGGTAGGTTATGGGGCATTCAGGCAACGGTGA", "REPORTED VALUE": 0.235}
{"SEQUENCE DATA": "CGAACGAGGGCATGAGTGGATAGCAAATGCCGAT", "REPORTED VALUE": 0.364}
{"SEQUENCE DATA": "CGACCAAGGTCAAAGGTCAGTGAAGAGATGACGG", "REPORTED VALUE": 8.72}
{"SEQUENCE DATA": "GCTAGTTGGTCAGTAAAAGGTCACAGACCGGTCG", "REPORTED VALUE": 3.72}
{"SEQUENCE DATA": "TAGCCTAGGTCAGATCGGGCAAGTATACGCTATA", "REPORTED VALUE": 1.87}
{"SEQUENCE DATA": "AGAATGAGGTTACCAAACATCAGGGAAACGCTTG", "REPORTED VALUE": 2.02}
{"SEQUENCE DATA": "CCTAGCAGGCCAATTTGGGTCACTCAAGGCTTGA", "REPORTED VALUE": 1.3}
{"SEQUENCE DATA": "GTGACTGGGGCAAAGCAGGTTACCATAAGGTTGG", "REPORTED VALUE": 0.845}
{"SEQUENCE DATA": "TTACCAAGGTGAGCTGAGGTCGTTGCTCCAACTC", "REPORTED VALUE": 1.27}
{"SEQUENCE DATA": "TCATATAGGTAAATGCTAGGTGAAAGTGCGATCT", "REPORTED VALUE": 1.14}
{"SEQUENCE DATA": "CCAGACAGGTGACAGGTAACTCAGTCTGGTACGC", "REPORTED VALUE": -0.312}
{"SEQUENCE DATA": "CTCGAAAGGTCGTGCTCAGGTTAGTATACCAAAC", "REPORTED VALUE": 5.58}
{"SEQUENCE DATA": "GCTCGGAGGACAAGGTCAGAGATTTGTCCGTAGA", "REPORTED VALUE": 1.22}
{"SEQUENCE DATA": "ATCTCTAGGTAAGACTCCGTTCAGTGAAGAACGC", "REPORTED VALUE": 0.49}
{"SEQUENCE DATA": "CGTCCAAGGTCAAAGGTCAGAGAAGAGATGACGG", "REPORTED VALUE": 8.35}
{"SEQUENCE DATA": "AGTAAAAGTTCAGGACGAGGTAACGTAAAGCACG", "REPORTED VALUE": 3.83}

----------
test system: PPARg:RXRa DBDmut IVT, anti-RXR (DBD mutation: RXRa K156A/R161A, NR concentration 270 nM, RXRa partner concentration 90 nM); test: PBM binding z-score (relative to random genomic background probes); higher = stronger binding; sequences stand for … in GC…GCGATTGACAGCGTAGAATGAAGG

{"SEQUENCE DATA": "TCATATAGTTAAAAGGTGAAAGTCGGTGTGGTAA", "PBM binding z-score": 3.12}
{"SEQUENCE DATA": "CCTAGCAGGCCAATCTGGGTCATTCAAGGCTTGA", "PBM binding z-score": 3.81}
{"SEQUENCE DATA": "CCTACTGGGCAATTCAGAGGTCATTGATCATATG", "PBM binding z-score": 1.37}
